- EXPERIMENT_DESCRIPTION: protein stability index of a GFP-peptide fusion (yeast GPS) (PSI 1-4); higher = more stable; sorted into four equal gates, so the index is relative within each strain
- MEASUREMENT_PARAMETERS: san1∆
Item-by-item account of protein stability index

// KTSSQTSLSSKDLSNYR [YMR153W/NUP53] : protein stability index value = 2.58

Next:
// DVRRLKKNVWRSINNLI [BRN1] : protein stability index value = 1.06

// GFSPTSPTYSPTSPAYS [RPO21] : protein stability index value = 2.94

---

Item-by-item account of protein stability index
- EXPERIMENT_DESCRIPTION: protein stability index of a GFP-peptide fusion (yeast GPS) (PSI 1-4); higher = more stable; sorted into four equal gates, so the index is relative within each strain
- MEASUREMENT_PARAMETERS: ubr1∆
# print the numeric value only

// DLSSAASASGAAGAGAA [FAS2] : protein stability index value = 1.66

// NNNETSKPAFSFGAKSD [YJL041W/NSP1] : protein stability index value = 3.61

// PAGQATQKRTHVLKKNP [RPL4A] : protein stability index value = 2.74

// LNCCGSVARVEDHDVHS [IRR1] : protein stability index value = 2.45

// AVAHHTDCKFIRVSGAE [RPT6] : protein stability index value = 2.92

// ILKWVQWSRIVLQNVFK [MED1] : protein stability index value = 3.07

// IEANVTVKTSDDYVLRI [RPS1A] : protein stability index value = 2.73

// VFFDDDPLYDITKVPAL [REC8] : protein stability index value = 2.88

// SLEEIIAEGQKKFATVP [RPP2B] : protein stability index value = 2.59

---

- EXPERIMENT_DESCRIPTION: protein stability index of a GFP-peptide fusion (yeast GPS) (PSI 1-4); higher = more stable; sorted into four equal gates, so the index is relative within each strain
- MEASUREMENT_PARAMETERS: pdr5∆
Item-by-item account of protein stability index
# print the numeric value only

// MDVDIGCYFEEKRYDDK [CSN12] : protein stability index value = 3.19

// VKIGDIEKWTANLLPAR [RPS22A] : protein stability index value = 2.65

// FIENFLTNDTFEKKLSI [YML103C/NUP188] : protein stability index value = 3.12

// DQKIWPYLEKYPEYDQI [SSN3] : protein stability index value = 3.08

// FQITLSSDDLQNCWSLI [SSN8] : protein stability index value = 2.33

Next:
// TTPKKIKHKHKKVKLAV [RPS31] : protein stability index value = 1.99

// NVYVGMTDMQIQWYKSL [ISW2] : protein stability index value = 2.41

// AAAQAQSKIDLTKKKNE [SEM1] : protein stability index value = 2.83

// NHFSLSYKDSGLWGFST [COR1] : protein stability index value = 3.23

// EVTKSSHVENLEEKLYQ [YIL149C/MLP2] : protein stability index value = 2.97

---

- EXPERIMENT_DESCRIPTION: protein stability index of a GFP-peptide fusion (yeast GPS) (PSI 1-4); higher = more stable; sorted into four equal gates, so the index is relative within each strain
- MEASUREMENT_PARAMETERS: doa10∆
MEASURED_METRIC: protein stability index
# print the numeric value only

Some sequences with known protein stability index results, for comparison:
// RQQKLLLETKLRQQYEI [SWI1] : protein stability index value = 3.06

// YYYNTKIYKLENGERKL [YMR129W/POM152] : protein stability index value = 3.03

Would you kindly look at the next entry?
// PEKTSTELVDGRENFVY [SIR3] : protein stability index value = 3.08

---

- EXPERIMENT_DESCRIPTION: protein stability index of a GFP-peptide fusion (yeast GPS) (PSI 1-4); higher = more stable; sorted into four equal gates, so the index is relative within each strain
- MEASUREMENT_PARAMETERS: doa10∆
MEASURED_METRIC: protein stability index
# print the numeric value only

Some sequences with known protein stability index results, for comparison:
// AAPAGVAGGVAGGEAGE [RPP1A] : protein stability index value = 1.91

// ATTGGGLFGNKPNNTAN [YGL172W/NUP49] : protein stability index value = 3.62

// LQQKQQQRFQALQQQQQ [SWI1] : protein stability index value = 1.35

Next:
// TSADLKSKAEELTQVPS [UBP6] : protein stability index value = 3.16

// VFVNTGLQNVRKVRTKK [SWP82] : protein stability index value = 2.51

// AAAQAQSKIDLTKKKNE [SEM1] : protein stability index value = 2.9

---

- EXPERIMENT_DESCRIPTION: protein stability index of a GFP-peptide fusion (yeast GPS) (PSI 1-4); higher = more stable; sorted into four equal gates, so the index is relative within each strain
- MEASUREMENT_PARAMETERS: san1∆
MEASURED_METRIC: protein stability index
# print the numeric value only

Some sequences with known protein stability index results, for comparison:
// PTGGKAKLSEGTSFRRK [RPS27A] : protein stability index value = 3.33

// DYSKPNLPPHYALFLKA [SSN2] : protein stability index value = 1.78

// PPEEFSNTIDELSTDII [SRB7] : protein stability index value = 3.26

// KQNSSSDINQNDDSSSM [YDL088C/ASM4] : protein stability index value = 2.58

// NVPSTKFNAAPEENATE [SNF12] : protein stability index value = 3.17

Next:
// PPTDTNVEESVSKADIL [POP5] : protein stability index value = 2.79

// WFLDHNYIENMNEMCKK [RPN8] : protein stability index value = 2.93

// NTDLKDIIQGNPLMYSG [PCI8] : protein stability index value = 3.21

---

- EXPERIMENT_DESCRIPTION: protein stability index of a GFP-peptide fusion (yeast GPS) (PSI 1-4); higher = more stable; sorted into four equal gates, so the index is relative within each strain
- MEASUREMENT_PARAMETERS: doa10∆
Item-by-item account of protein stability index

Some sequences with known protein stability index results, for comparison:
// RENVFFQSQQRRKDTSM [RPB9] : protein stability index value = 3.07

// IYSRDIGAELKREESES [SNF2] : protein stability index value = 3.06

// QKVSENFEAVFERLVPR [SMC3] : protein stability index value = 2.53

// IEAEEAEEIGVEHLLRD [RPN8] : protein stability index value = 3.1

Would you kindly look at the next entry?
// AEENLKKRIRLPSEERI [YIL149C/MLP2] : protein stability index value = 2.89

---

- EXPERIMENT_DESCRIPTION: protein stability index of a GFP-peptide fusion (yeast GPS) (PSI 1-4); higher = more stable; sorted into four equal gates, so the index is relative within each strain
- MEASUREMENT_PARAMETERS: pdr5∆
MEASURED_METRIC: protein stability index
# print the numeric value only

Some sequences with known protein stability index results, for comparison:
// LRSDIPCLSRSCTKCPQ [DIS3] : protein stability index value = 2.94

// VAATNTPIIFIGTGEHI [SRP54] : protein stability index value = 3.03

// TVASSKVGYTLPSHIIS [RPL4A] : protein stability index value = 3.02

// LRSNKCILYDADESKMA [RET1] : protein stability index value = 3.07

// RLENKLSEIESLDEILL [SRP68] : protein stability index value = 2.99

// KALPIRRDDEVLVVRGS [RPL26A] : protein stability index value = 3.05

Next:
// AMICEAKGLIENIFEGE [YJR042W/NUP85] : protein stability index value = 2.93

// ATANATANATANVNASA [DSN1] : protein stability index value = 3

// SKIIVFPRNGKAPEAEQ [RPL13A] : protein stability index value = 3.09

// AVQNESVSSPIELNFDA [QCR2] : protein stability index value = 2.95

// NQQQQNQQPQQQQQQQQ [SWI1] : protein stability index value = 2.93

---

Item-by-item account of protein stability index
- EXPERIMENT_DESCRIPTION: protein stability index of a GFP-peptide fusion (yeast GPS) (PSI 1-4); higher = more stable; sorted into four equal gates, so the index is relative within each strain
- MEASUREMENT_PARAMETERS: ubr1∆
# print the numeric value only

// ITHNTNITDNLFQELSK [GRR1] : protein stability index value = 3.18

// SLIRNNLHAEGWPKLQL [ECM29] : protein stability index value = 1.04

// FGAKMSRTLILSILNEI [SIN4] : protein stability index value = 1.68

// SVDPQSSSTQNVFVILM [DIS3] : protein stability index value = 2.92

// WGMEPLEDYVPHQSPDA [RPB2] : protein stability index value = 2.98

Next:
// QQIPLLCYMAPMTVKLV [POP3] : protein stability index value = 1.53

// KAAAGAGSAALKIIHDT [RPO31] : protein stability index value = 1.77

// PHGISVFLSNLVETCLN [BRR2] : protein stability index value = 1.61

// SSASPSALTSPTDSSKI [SIR3] : protein stability index value = 2.72

// NVFHGLCAGANNPKIQT [IRR1] : protein stability index value = 1.56

// ESKQDGLSILFLTGQFA [YML103C/NUP188] : protein stability index value = 2.72

// TLIDLVKHSPGAIKPFT [ECM29] : protein stability index value = 2.92

// DNGGTILGIAGEDFAVL [PRE7] : protein stability index value = 3.47

// TQAIADIVQYHLELYTS [PRE3] : protein stability index value = 2.01

// FSFSKSEEERKSSPISN [YOR098C/NUP1] : protein stability index value = 2.94

// LQLAPGAHLGRFVIWTE [RPL4A] : protein stability index value = 3.27

// FISNLPNVSDKYYLEES [NUT1] : protein stability index value = 1.27

// LVLGEVSKKELYAIKKV [BRR2] : protein stability index value = 1.83

// FRNNKNDNYSSDMENDN [REC8] : protein stability index value = 2.73
